# measurement target: Bcr/Abl fusion protein (Homo sapiens)
# Sequence (P00519 whole entry, the tested form may be a part): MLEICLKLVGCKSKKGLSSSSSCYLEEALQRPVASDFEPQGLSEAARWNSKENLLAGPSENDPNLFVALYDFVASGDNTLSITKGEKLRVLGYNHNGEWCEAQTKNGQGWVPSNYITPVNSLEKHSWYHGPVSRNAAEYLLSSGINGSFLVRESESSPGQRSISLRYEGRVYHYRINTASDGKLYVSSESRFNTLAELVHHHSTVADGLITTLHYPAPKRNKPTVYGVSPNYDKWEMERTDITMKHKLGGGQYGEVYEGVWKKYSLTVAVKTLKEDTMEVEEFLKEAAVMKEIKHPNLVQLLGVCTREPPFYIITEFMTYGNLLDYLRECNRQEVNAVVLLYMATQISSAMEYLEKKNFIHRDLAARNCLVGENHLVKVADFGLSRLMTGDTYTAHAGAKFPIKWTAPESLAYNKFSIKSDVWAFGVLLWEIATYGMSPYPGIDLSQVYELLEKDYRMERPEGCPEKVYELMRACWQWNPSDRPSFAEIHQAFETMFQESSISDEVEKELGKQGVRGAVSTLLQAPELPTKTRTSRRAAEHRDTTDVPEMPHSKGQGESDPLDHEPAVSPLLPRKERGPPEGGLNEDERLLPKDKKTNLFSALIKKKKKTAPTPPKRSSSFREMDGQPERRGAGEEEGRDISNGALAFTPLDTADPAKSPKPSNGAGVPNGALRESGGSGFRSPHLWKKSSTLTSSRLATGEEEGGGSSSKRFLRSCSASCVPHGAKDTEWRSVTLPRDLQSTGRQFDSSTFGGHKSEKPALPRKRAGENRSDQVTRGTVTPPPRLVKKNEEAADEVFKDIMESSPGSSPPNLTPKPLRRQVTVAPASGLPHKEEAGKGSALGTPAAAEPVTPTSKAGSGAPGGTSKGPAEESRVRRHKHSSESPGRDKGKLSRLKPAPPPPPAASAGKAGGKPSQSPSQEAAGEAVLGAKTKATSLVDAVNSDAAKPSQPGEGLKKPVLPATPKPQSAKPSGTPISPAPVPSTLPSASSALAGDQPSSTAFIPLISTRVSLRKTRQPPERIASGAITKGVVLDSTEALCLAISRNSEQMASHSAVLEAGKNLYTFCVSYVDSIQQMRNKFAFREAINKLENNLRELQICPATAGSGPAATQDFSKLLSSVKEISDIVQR
# Sequence (P11274 whole entry, further chain, the tested form may be a part): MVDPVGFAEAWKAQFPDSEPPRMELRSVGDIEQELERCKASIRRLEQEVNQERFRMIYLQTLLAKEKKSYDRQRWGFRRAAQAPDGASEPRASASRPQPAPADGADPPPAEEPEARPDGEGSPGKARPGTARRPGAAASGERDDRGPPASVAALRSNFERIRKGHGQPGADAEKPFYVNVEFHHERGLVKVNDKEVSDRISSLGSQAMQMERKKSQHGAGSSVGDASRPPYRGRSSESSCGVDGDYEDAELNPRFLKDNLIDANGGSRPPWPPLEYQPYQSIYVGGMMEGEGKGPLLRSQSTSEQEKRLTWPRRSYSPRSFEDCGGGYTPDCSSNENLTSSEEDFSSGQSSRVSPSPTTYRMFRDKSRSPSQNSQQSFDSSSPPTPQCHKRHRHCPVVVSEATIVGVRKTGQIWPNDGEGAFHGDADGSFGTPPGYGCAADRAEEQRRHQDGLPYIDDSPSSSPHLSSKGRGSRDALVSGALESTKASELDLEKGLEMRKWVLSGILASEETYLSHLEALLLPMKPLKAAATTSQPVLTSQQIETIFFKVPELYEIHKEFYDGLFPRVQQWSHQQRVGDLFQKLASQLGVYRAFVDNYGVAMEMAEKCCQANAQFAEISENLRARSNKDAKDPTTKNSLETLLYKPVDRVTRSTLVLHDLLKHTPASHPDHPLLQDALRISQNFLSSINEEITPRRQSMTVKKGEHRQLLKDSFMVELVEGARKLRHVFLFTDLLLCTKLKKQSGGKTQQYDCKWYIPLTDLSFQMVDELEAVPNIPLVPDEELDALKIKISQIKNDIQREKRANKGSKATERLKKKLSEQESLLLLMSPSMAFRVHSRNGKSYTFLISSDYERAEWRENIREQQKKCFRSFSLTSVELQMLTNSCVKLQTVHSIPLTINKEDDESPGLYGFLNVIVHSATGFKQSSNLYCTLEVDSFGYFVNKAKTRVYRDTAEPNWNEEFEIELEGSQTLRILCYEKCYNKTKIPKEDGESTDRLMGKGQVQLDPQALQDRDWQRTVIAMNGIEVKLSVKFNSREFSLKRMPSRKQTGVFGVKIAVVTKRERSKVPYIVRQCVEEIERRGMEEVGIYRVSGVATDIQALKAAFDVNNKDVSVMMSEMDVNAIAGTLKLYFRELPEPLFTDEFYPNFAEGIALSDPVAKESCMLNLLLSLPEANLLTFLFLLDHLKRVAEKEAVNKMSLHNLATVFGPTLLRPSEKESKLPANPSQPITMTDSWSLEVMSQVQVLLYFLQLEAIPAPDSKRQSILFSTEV
# method description: Inhibition of BCR-ABL1 (unknown origin) assessed as ATP remaining by Kinase-Glo luminescent kinase assay
pIC50: −log10 of the molar value.
test readout: pIC50

Cc1ccc(NC(=O)c2cccc(Cl)c2)cc1-n1cc(-c2cccnc2)cn1 7.80

(I) Cc1ccc(NC(=O)c2ccc(CN3CCCC3)cc2)cc1-n1cc(-c2cccnc2)cn1
(II) Cc1ccc(NC(=O)c2ccc(C(F)(F)F)cc2)cc1-n1cc(-c2cccnc2)cn1
### Prompt Please choose the item with the lower pIC50 value from this pair: I and II Return value: the label identifying the chosen record.
### Response I

(1) CCN1CCN(Cc2ccc(C(=O)Nc3ccc(C)c(-n4cc(-c5cccnc5)cn4)c3)cc2)CC1
(2) Cc1ccc(NC(=O)c2ccc(CN3CCOCC3)cc2)cc1-n1cc(-c2cccnc2)cn1
### Prompt Please choose the item with the lower pIC50 value from this pair: 1 and 2 Return value: the label identifying the chosen record.
### Response 2
(2: 6.75, 1: 7.77)

These data points were gathered from ChEMBL document CHEMBL3596095.
